Target: pooled human IgG (human IgG1, 2, 3 and 4)
Measured Enzyme Activity Endpoint Assay: IgG, listed per entry.
Quantity Measured: Enzyme Activity Endpoint Assay: IgG

Protein	Value Measured
PRT-578 (protein) MANQEIRYSKATPKVITSVWTKGVTPPEDFTYNEDVFHAPYLPNQGWYDITKTFNGKDDLLCGAATAGNMLHWWFDQNKEQIERYLKEHPEKQKINFNGEQMFDVKEAIDTKDSQTNSKLFEYFKDKAFPYLSTKHLGVFPDHVIDMFINGYRLSLTNHGPTPVKEQNKDPRGGIFDAVFTRGDQSKLLTSRHDFKEKTLKEISDLIKQELKEGKALGLSHTYANVRINHVINLWGADFDAEGNLEAIYVTDSDSNASIGMKKYYVGVNSAGKVAISAKEIEGDNIGAQVLGLFTLSTGKDIWEQTNLEHHHHHH	0 ng/µL
PRT-553 (protein) MANQEIRYSEETPKTITSIWTKGVTPPTDFIKNEDVLHAPYVANQGWYDITKTFNGKDDLLCGAATAGNMLHWWFDQNKEEIENYLKKHPEKQKINFNGEQMFDVKEAIDTKDSQTDSKLFEYFKDKAFPYLSTKHLGVFPDHVIDMFINGYRLSLTNHGPTPVKRGTKDPRGGIFDAVFTRGDQTKLLTERHDFKEKTLNEISDLIKQELTEGKALGLSHTYANVRINHVINLWGADFNSEGNLEAIYVTDSDSNASIGMKKYYVGVNAAGKVAISAKEIEDDNIGAQVLGLFTLSTGKDIWEQTNLEHHHHHH	111 ng/µL
